B1: TPR 5TU (parent)
chain: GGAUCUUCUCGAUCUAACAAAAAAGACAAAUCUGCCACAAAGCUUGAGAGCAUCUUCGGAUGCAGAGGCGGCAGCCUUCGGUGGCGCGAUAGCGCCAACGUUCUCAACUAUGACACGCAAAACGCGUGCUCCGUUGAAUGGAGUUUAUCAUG

# Variants of: B1
# Assay name: polymerase ribozyme fitness, log enrichment relative to wild type (log ratio); higher = more active; in vitro selection for triplet polymerase activity
Variants at the floor of the assay were thinned out.
Property label: polymerase ribozyme fitness (log ratio)

| Variant notation | Modifier | Number |
| --- | --- | --- |
| A41G A60G A97U | = | -0.347 |
| A89U U148G | = | -3.92 |
| A16C G126A | = | -0.0283 |
| C87U A150C | = | -3.7 |
| C76U C85A G141C U148C | = | -3.74 |
| C14A U82G C96G | = | -2.31 |
| C8A A52C C75U C95G C96U U109A | ≤ | -4.2 |
| G48C U55A C103G | = | -0.533 |
| A16U C69A U145G | = | -3.75 |
| C38A C93A | = | -2.59 |
| U55A C93U | = | -1.68 |

All values here come from the RNAGym collection of RNA variant scans (doi:10.1073/pnas.2313332121).
